Measured values drawn from patent US20200369728A1 for this set.

assay: Circular dichroism (CD) analysis of alpha-helicity; assay type: physicochemical; details: benign buffer
Bridge positions count the residues as written; N and C are the ends. Square brackets hold non-standard residues; d marks the D form. Peptide text beside a SMILES is read from it. R8 = C=CCCCCCC[C@@](C)(N)C(=O)O; S5 = C=CCCC[C@](C)(N)C(=O)O; Nle = CCCC[C@H](N)C(=O)O
I would appreciate it if you labelled entries Fulfilled when % Helix benign compared to 50% TFE parent (CD) is 2% or higher, otherwise Not fulfilled.

1) CC(=O)N[C@@H](CC(C)C)C(=O)N[C@H](C(=O)N[C@@H](Cc1ccccc1)C(=O)N[C@]1(C)CCCCCCC=CCCC[C@@](C)(C(=O)N[C@@H](Cc2c[nH]cn2)C(=O)N[C@@H](Cc2c[nH]cn2)C(=O)N[C@@H](CC(C)C)C(=O)N[C@H](C)C(N)=O)NC(=O)[C@H](CC(C)C)NC(=O)[C@H](CCC(N)=O)NC(=O)[C@H](C)NC(=O)[C@H](Cc2c[nH]c3ccccc23)NC(=O)[C@H](Cc2ccc(O)cc2)NC(=O)[C@H](C)NC1=O)[C@@H](C)O [compound 43] (Ac-LTF[R8]AYWAQL[S5]HHL[dA]-NH2; staple 4-11)	Fulfilled
2) CCCC[C@H](NC(=O)[C@H](C)NC(=O)[C@H](C)NC(=O)[C@]1(C)CCC/C=C/CCCCCC[C@@](C)(NC(=O)[C@H](Cc2ccccc2)NC(=O)[C@@H](NC(=O)[C@H](CC(C)C)NC(C)=O)[C@@H](C)O)C(=O)N[C@@H](C)C(=O)N[C@@H](Cc2ccc(O)cc2)C(=O)N[C@@H](Cc2c[nH]c3ccccc23)C(=O)N[C@@H](C)C(=O)N[C@@H](CCC(N)=O)C(=O)N[C@@H](CC(C)C)C(=O)N1)C(=O)N[C@@H](C)C(N)=O	Not fulfilled
3) CC(=O)N[C@@H](CC(C)C)C(=O)N[C@H](C(=O)N[C@@H](Cc1ccccc1)C(=O)N[C@]1(C)CCCCCCC=CCCC[C@@](C)(C(=O)N[C@@H](CO)C(=O)N[C@@H](C)C(=O)N[C@@H](C)C(N)=O)NC(=O)[C@H](CC(C)C)NC(=O)[C@H](CCC(N)=O)NC(=O)[C@H](C)NC(=O)[C@H](Cc2c[nH]c3ccccc23)NC(=O)[C@H](Cc2ccc(O)cc2)NC(=O)[C@H](C)NC1=O)[C@@H](C)O [compound 11] (Ac-LTF[R8]AYWAQL[S5]SAA-NH2; staple 4-11)	Fulfilled
4) CC[C@H](C)[C@H](NC(=O)[C@H](C)NC(=O)[C@H](C)NC(=O)[C@]1(C)CCC/C=C/CCCCCC[C@@](C)(NC(=O)[C@H](Cc2ccccc2)NC(=O)[C@@H](NC(=O)[C@H](CC(C)C)NC(C)=O)[C@@H](C)O)C(=O)N[C@@H](C)C(=O)N[C@@H](Cc2ccc(O)cc2)C(=O)N[C@@H](Cc2c[nH]c3ccccc23)C(=O)N[C@@H](C)C(=O)N[C@@H](CCC(N)=O)C(=O)N[C@@H](CC(C)C)C(=O)N1)C(=O)N[C@H](C)C(N)=O	Not fulfilled
5) CCCC[C@H](NC(=O)[C@H](CCC(N)=O)NC(=O)[C@H](CCC(N)=O)NC(=O)[C@]1(C)CCCC=CCCCCCC[C@@](C)(NC(=O)[C@H](Cc2ccccc2)NC(C)=O)C(=O)N[C@@H](C)C(=O)N[C@@H](Cc2ccc(O)cc2)C(=O)N[C@@H](Cc2c[nH]c3ccccc23)C(=O)N[C@@H]([C@@H](C)O)C(=O)N[C@@H](C)C(=O)N[C@@H](CC(C)C)C(=O)N1)C(=O)N[C@@H](C(N)=O)C(C)C [compound 41] (Ac-F[R8]AYWTAL[S5]QQ[Nle][dV]-NH2; staple 2-9)	Fulfilled
